pKi: −log10 of the molar value.
As an illustration, consider measured pKi for compounds on UniProt P07477.
Sequence (P07477 whole entry): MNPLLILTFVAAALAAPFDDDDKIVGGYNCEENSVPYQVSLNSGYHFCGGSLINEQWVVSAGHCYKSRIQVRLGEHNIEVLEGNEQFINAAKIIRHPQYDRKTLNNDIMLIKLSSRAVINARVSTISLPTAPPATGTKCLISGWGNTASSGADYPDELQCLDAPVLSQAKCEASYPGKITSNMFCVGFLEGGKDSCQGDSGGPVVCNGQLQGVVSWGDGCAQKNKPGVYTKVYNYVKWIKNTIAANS
reportedProperty: pKi

A. CCCCCCCCCCN[C@@H](CCCN=C(N)N)C(=O)N[C@H](C(=O)N[C@@H](CCCCN)C(=O)N[C@@H](CCCN=C(N)N)C(=O)CCC(=O)N[C@@H](C(=O)NCC(=O)N[C@H](CC(C)C)C(=O)OC)C(C)C)C(C)C
B. CCCCCCCCCCN[C@@H](CCCNC(=N)N)C(=O)N[C@H](C(=O)N[C@@H](CCCCN)C(=O)N[C@@H](CCCNC(=N)N)C(=O)CN[C@@H](C)C(=O)N[C@H](C(=O)NCC(=O)OC)C(C)C)C(C)C
Could you kindly indicate whether A or B has the higher pKi value? Choose, then provide that item's label. B

###

# subjectOfTest: Furin (Homo sapiens)
# Sequence (P09958 whole entry): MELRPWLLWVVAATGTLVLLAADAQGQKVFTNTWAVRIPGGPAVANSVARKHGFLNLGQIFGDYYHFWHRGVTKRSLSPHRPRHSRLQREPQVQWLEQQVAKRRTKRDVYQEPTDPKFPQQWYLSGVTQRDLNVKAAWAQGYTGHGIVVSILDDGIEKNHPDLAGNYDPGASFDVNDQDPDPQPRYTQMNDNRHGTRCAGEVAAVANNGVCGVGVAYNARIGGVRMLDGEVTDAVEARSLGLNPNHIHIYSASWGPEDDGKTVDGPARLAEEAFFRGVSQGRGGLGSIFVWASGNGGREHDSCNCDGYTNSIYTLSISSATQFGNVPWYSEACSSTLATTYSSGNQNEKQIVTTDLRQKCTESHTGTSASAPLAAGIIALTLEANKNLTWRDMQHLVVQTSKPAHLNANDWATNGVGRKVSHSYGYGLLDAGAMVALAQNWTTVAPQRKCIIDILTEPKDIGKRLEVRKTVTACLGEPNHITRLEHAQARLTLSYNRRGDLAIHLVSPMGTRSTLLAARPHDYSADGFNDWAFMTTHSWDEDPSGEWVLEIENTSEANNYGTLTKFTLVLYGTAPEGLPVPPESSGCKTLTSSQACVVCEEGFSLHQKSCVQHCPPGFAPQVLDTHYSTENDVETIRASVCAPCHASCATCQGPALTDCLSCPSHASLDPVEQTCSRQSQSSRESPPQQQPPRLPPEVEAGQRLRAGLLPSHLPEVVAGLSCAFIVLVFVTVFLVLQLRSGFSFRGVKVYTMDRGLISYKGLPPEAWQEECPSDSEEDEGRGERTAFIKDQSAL
reportedProperty: Ki (nM)

I. COC(=O)[C@@H](CC(C)C)NC(=O)CNC(=O)[C@H](NC(=O)CCC(=O)[C@H](CCCN=C(N)N)NC(=O)[C@H](CCCCN)NC(=O)[C@@H](NC(=O)[C@H](CCCN=C(N)N)NC(C)=O)C(C)C)C(C)C
II. CCCCCCCCCCN[C@@H](CCCN=C(N)N)C(=O)N[C@H](C(=O)N[C@@H](CCCCN)C(=O)N[C@H](CCCN=C(N)N)C(=O)CN[C@@H](C)C(=O)N[C@H](C(=O)NCC(N)=O)C(C)C)C(C)C
III. CCCCCCCCCCN[C@@H](CCCN=C(N)N)C(=O)N[C@H](C(=O)N[C@@H](CCCCN)C(=O)N[C@@H](CCCN=C(N)N)C(=O)CN[C@@H](C)C(=O)N[C@H](C(=O)NCC(N)=O)C(C)C)C(C)C
For the compounds shown above, give the order from largest Ki to smallest. To answer, arrange all of the labels according to the requested order. I, II, III
